- test-details: Organ distribution of 99mTc-labeled substances in rats 30 minutes after injection as a function of the amount of substance administered
- Type: in vivo
- study-conditions: rat, in vivo, iv, 0.05 mg, 30 min after injection; second amount column (printed 50 μg); n = 3; read-out: Femur/g
outcome-measure: tissue uptake at 0.5 h

compound	outcome-measure	result
O=C(O)C(CC(P(=O)(O)O)P(=O)(O)O)P(=O)(O)O (stereo not shown)	tissue uptake at 0.5 h	0.29 %ID/g

---

- test-details: Example 2: organ distribution in rats, frozen solution labeled with 99mTc
- Type: in vivo, Sprague-Dawley rats
- study-conditions: rat, bone, iv; 2 hours p.i.; femoral vein
outcome-measure: tissue uptake at 2 h (%ID/g)

molecule	numeric-result
O=C(O)C(CC(P(=O)(O)O)P(=O)(O)O)P(=O)(O)O (stereo not shown)	0.22
